These measurements were taken from the supplement of paper PMC10307832.

System: NCI-H647
measurement-protocol: relative viability (nuclei count vs DMSO), 5 days (fraction); higher = more cells survive
test-context: first compound 158.11 µM
I'd appreciate it if you could supply relative viability values for the items below.
Answers are plain numbers.

# compound, measured-value
measured = [
    ("O=C(O)CCCCC(CCSCc1ccccc1)SCc1ccccc1 (centres undefined) [CPI-613] + CC(=O)Nc1cccc(-n2c(=O)n(C3CC3)c(=O)c3c(Nc4ccc(I)cc4F)n(C)c(=O)c(C)c32)c1 [Trametinib] (partner 0.02 µM)", 0.0824),
]

Value sought for every listed compound: relative viability.
1. O=C(O)CCCCC(CCSCc1ccccc1)SCc1ccccc1 (centres undefined) [CPI-613] + CS(=O)(=O)N1CCN(Cc2cc3nc(-c4cccc5[nH]ncc45)nc(N4CCOCC4)c3s2)CC1 [Pictilisib] (partner 1 µM)
2. O=C(O)CCCCC(CCSCc1ccccc1)SCc1ccccc1 (centres undefined) [CPI-613] + O=C(c1cc(Cc2n[nH]c(=O)c3ccccc23)ccc1F)N1CCN(C(=O)C2CC2)CC1 [Olaparib] (partner 8 µM)
3. O=C(O)CCCCC(CCSCc1ccccc1)SCc1ccccc1 (centres undefined) [CPI-613] + Cc1nc(Nc2ncc(C(=O)Nc3c(C)cccc3Cl)s2)cc(N2CCN(CCO)CC2)n1 [Dasatinib] (partner 0.075 µM)

a:
1. 0.424
2. 0.0348
3. 0.0387
